Reference for the values: the supplement of paper PMC12420376

Test system: OVCAR8
Assay: drug sensitivity score (DSS2) on cancer cell count; higher = more sensitive; extreme values may be limits of the assay
Conditions: co-cultured fibroblast: WI38; 72 h
Provide the recorded drug sensitivity score for the entries that follow.
# output: number + unit

Query: Given O=C(O)c1ccc(CN2CCC(CN[C@@H]3C[C@H]3c3ccccc3)CC2)cc1 , respond with its drug sensitivity score.
Reply: 0 DSS

Query: Given Cn1ncc(Cl)c1-c1cc(C(=O)N[C@H](CN)Cc2ccc(F)c(F)c2)oc1Cl [Uprosertib] , respond with its drug sensitivity score.
Reply: 0 DSS

Query: Given O=C(CCCCCCNC(=O)c1cnc(N(c2ccccc2)c2ccccc2)nc1)NO [Rocilinostat] , respond with its drug sensitivity score.
Reply: 5.2 DSS

Query: Given CCCC(CCC)C(=O)O [Valproic acid] , respond with its drug sensitivity score.
Reply: 0 DSS

Query: Given CCn1cc(-c2ccnc3[nH]c(-c4cccc(CN(C)C)c4)cc23)c(-c2ccc(NC(=O)N(C)C)cc2)n1 , respond with its drug sensitivity score.
Reply: 4.4 DSS

Query: Given O=C(Nc1ccc2[nH]nc(-c3ccncc3)c2c1)[C@@H]1CCN(CC(=O)N2CCN(c3ccc(-c4ncccn4)cc3)CC2)C1 , respond with its drug sensitivity score.
Reply: 10.2 DSS

----------
Test system: OVCAR8
Experiment: drug sensitivity score (DSS2) on cancer cell count; higher = more sensitive; extreme values may be limits of the assay
Conditions: co-cultured fibroblast: WI38; 72 h
Quantity kind: drug sensitivity score (DSS)
# unit: DSS | format: bare number

Query: Given COc1cc(N2CCN(C)CC2)ccc1Nc1nccc(-c2cn(C)c3cnccc23)n1 [AZ191] , respond with its drug sensitivity score.
Reply: 2

Query: Given Cc1ccc(NC(=O)c2ccc(CN3CCN(C)CC3)cc2)cc1Nc1nccc(-c2cccnc2)n1 [Imatinib] , respond with its drug sensitivity score.
Reply: 7.3

Query: Given COc1cc2c(Oc3ccc4[nH]c(C)cc4c3F)ncnc2cc1OCCCN1CCCC1 [Cediranib] , respond with its drug sensitivity score.
Reply: 0

Query: Given CC/C(=C(\c1ccccc1)c1ccc(OCCN(C)C)cc1)c1ccccc1 [Tamoxifen] , respond with its drug sensitivity score.
Reply: 0

Query: Given C[C@H]1C[C@@H](n2c(Nc3ccc(OC(F)(F)F)cc3)nc3cc(CCC(=O)O)ccc32)CC(C)(C)C1 , respond with its drug sensitivity score.
Reply: 0

Query: Given CC[C@@](C)(Nc1ccnc(-c2c[nH]c3ncccc23)n1)C(=O)NCC(F)(F)F [Decernotinib] , respond with its drug sensitivity score.
Reply: 0

Query: Given CC/C(=C(\c1ccc(O)cc1)c1ccc(OCCN(C)C)cc1)c1ccccc1 [4-hydroxytamoxifen] , respond with its drug sensitivity score.
Reply: 0

Query: Given Cn1nccc1Nc1nccc(-c2ccn([C@H](CO)c3ccc(Cl)c(F)c3)c(=O)c2)n1 [Ravoxertinib] , respond with its drug sensitivity score.
Reply: 4.3

Query: Given C[C@@H](Oc1ccc2[nH]nc(/C=C/c3cnn(CCO)c3)c2c1)c1c(Cl)cncc1Cl , respond with its drug sensitivity score.
Reply: 9.2

Query: Given Cc1nc(C(=O)NCC(=O)O)c(O)c2ccc(Oc3ccccc3)cc12 [Roxadustat] , respond with its drug sensitivity score.
Reply: 0

Query: Given CS(=O)(=O)c1ccc(C(=O)Nc2ccc(Cl)c(-c3ccccn3)c2)c(Cl)c1 [Vismodegib] , respond with its drug sensitivity score.
Reply: 6.8

Query: Given C=CCN(/C=C1/C(=O)O[C@H](COC)[C@@]2(C)C1=C(O)C(=O)C1=C2[C@H](OC(C)=O)C[C@]2(C)C(=O)CC[C@@H]12)CC=C [Sonolisib] , respond with its drug sensitivity score.
Reply: 0

Query: Given CC(C)Oc1ccc(C(=O)N[C@H](CNC(=O)CN(C)C)Cc2ccc(-c3cn4cccc([C@H](C)O)c4n3)cc2)cc1Cl , respond with its drug sensitivity score.
Reply: 14.2

Query: Given CC(C)NC[C@@H](C(=O)N1CCN(c2ncnc3c2[C@H](C)C[C@H]3O)CC1)c1ccc(Cl)cc1 [Ipatasertib] , respond with its drug sensitivity score.
Reply: 0

Query: Given CN(C)C/C=C/C(=O)Nc1cc2c(Nc3ccc(F)c(Cl)c3)ncnc2cc1O[C@H]1CCOC1 [Afatinib] , respond with its drug sensitivity score.
Reply: 0

Query: Given Cn1nnc2c(C(N)=O)ncn2c1=O [Temozolomide] , respond with its drug sensitivity score.
Reply: 0

Query: Given COc1cc2/c(=N/c3ccc(Br)cc3F)nc[nH]c2cc1OCC1CCN(C)CC1 [Vandetanib] , respond with its drug sensitivity score.
Reply: 0

Query: Given COc1ccc(Cn2ccc3ccc(C(=O)NO)cc32)cc1 , respond with its drug sensitivity score.
Reply: 0.7

Query: Given CNC(=O)c1cccc2cc(Oc3ccnc4cc(OCC5(N)CC5)c(OC)cc34)ccc12 [Lucitanib] , respond with its drug sensitivity score.
Reply: 6
